For each entry below, report its Percent Effect value.
- measurement_target: Tyrosyl-tRNA synthetase, putative (Trypanosoma cruzi (strain CL Brener)) (UniProt Q4DSP6)
- Sequence (Q4DSP6 as listed by the source): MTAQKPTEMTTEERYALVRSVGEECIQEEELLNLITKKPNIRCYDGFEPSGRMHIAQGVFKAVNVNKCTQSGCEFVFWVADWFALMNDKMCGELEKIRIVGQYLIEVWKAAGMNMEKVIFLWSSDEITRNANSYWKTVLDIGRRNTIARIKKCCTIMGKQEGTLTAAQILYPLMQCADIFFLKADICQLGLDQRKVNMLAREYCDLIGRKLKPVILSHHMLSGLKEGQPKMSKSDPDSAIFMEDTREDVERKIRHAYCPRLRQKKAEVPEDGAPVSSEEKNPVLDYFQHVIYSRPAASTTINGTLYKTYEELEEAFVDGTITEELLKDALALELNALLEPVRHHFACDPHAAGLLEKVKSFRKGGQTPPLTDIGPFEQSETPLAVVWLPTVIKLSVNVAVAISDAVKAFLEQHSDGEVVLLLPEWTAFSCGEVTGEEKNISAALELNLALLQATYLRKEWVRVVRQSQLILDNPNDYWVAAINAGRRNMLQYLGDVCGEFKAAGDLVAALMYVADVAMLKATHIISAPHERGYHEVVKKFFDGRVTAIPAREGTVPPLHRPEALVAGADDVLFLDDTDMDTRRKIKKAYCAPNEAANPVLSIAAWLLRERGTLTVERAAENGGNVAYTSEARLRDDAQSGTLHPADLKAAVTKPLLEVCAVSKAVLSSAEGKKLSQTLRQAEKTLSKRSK
- protocol_details: Trypanosoma cruzi tyrosyl tRNA synthetase (TcYRS) _High Tyrosine SOP; further: in the data most compounds retested in dose-response had high values
- Type: functional
- Set-up: scale not given: direction of the effect not stated beside the values
- experimental_parameters: 30 µM
Quick note: number first, unit second.

For this compound ( O=C(NCCOc1ccc2c(c1)CCC2)N1CCS(=O)(=O)CC1 ), measured Percent Effect is -1.44%

Entry under test: CN1CC(=O)N(c2ccsc2)CC12CCN(C(=O)c1ccccc1)C2 (centres undefined) . Its Percent Effect was 5.79%

// Percent Effect lookup, compound = O=C(COc1coc(CN2CCCCC2)cc1=O)NCc1ccccc1 , result: 4.25%

// field: Percent Effect; key: COc1ccc(C(CO)NC(=O)Nc2cccc(C#N)c2)cc1 (centres undefined) ; value = 7.94%

Item: O=C(NCc1nncn1-c1ccccc1)C1CC(=O)N(CC2CC2)C1 (centres undefined) | Percent Effect: 3.45%

Entry CC(=O)N(Cc1ncc(C)o1)C1CCN(CCCc2cnn(C)c2)C1 (centres undefined) — recorded Percent Effect = 4.74%

// sample Cc1cnn(C2CN(Cc3nc(-c4ccco4)no3)C2)c1 , its Percent Effect was 10.7%

The value of Percent Effect measured for the compound O=C(c1cnc(COc2ccccc2)nc1O)N1CCOCC1 turned out to be 2.1%

Noted for Cc1ccc(CNC(=O)NCCCn2nc3ccccn3c2=O)s1 : its Percent Effect reads 6.4%

Entry CCOc1ccnc(N2CCN(C(=O)c3cn[nH]c3CC)CC2)n1 , Percent Effect reported as 7.39%

The value of Percent Effect measured for the compound N#Cc1cc(NS(=O)(=O)c2ccc(C(=O)O)cc2F)ccc1F turned out to be 0.493%

Form: compound = Cc1ccc2c(c1)CN(C(=O)c1ccccc1F)C(CN(C)C)CO2 (centres undefined) ; Percent Effect = 1.07%

Entry Cc1ccc(NC2CCN(C(=O)c3c(C)noc3C)CC2)nn1 — recorded Percent Effect = 3.43%

Reported Percent Effect ( CC(C)N1CCn2c(nc3cc(C(N)=O)ccc32)C1 ) = 2.12%

Noted for CC(C)C(C(=O)N1CCC(N(C)c2cccnn2)CC1)n1cncn1 (centres undefined) : its Percent Effect reads -0.493%

Item: CN(c1ccncn1)C1CC2(CCN(C(=O)c3ccsc3)C2)C1 (centres undefined) | Percent Effect: 0%

Record Cc1ccccc1CC(=O)N(C)C1CCN(c2ccccn2)CC1 . Reported Percent Effect: 5.79%

Reported Percent Effect of Cc1ccc(CN2CCCn3c(nc(Cn4cncn4)cc3=O)C2)s1 : 4.74%

Memo: N#Cc1ccccc1OCCN1CCC(N2CCNC2=O)CC1 , reported Percent Effect: 6.93%

# Percent Effect of CCOC(=O)N1CCN(C(=O)c2sc(-c3ccccc3F)nc2C)CC1 = 4.79%

Input CCCc1cc(C(=O)N2CCOC(c3nc(-c4cccs4)no3)C2)no1 (centres undefined) . Output Percent Effect: -12.7%

Given item O=C(NCCNc1ncccn1)C1CC(=O)N(CC(F)(F)F)C1 (centres undefined) , the value recorded as its Percent Effect is 9.36%

The compound listed as Cc1nn(C)c(N(C)C)c1CNCC(O)COc1ccccc1 (centres undefined) shows Percent Effect equal to 5.38%

The reported Percent Effect of the compound CC1CCCCN1Cc1ccc(-c2ccccc2C(=O)O)cc1 (centres undefined) was 2.12%

---

- measurement_target: Arginase-2, mitochondrial (Homo sapiens) (UniProt P78540)
- Sequence (P78540 whole entry): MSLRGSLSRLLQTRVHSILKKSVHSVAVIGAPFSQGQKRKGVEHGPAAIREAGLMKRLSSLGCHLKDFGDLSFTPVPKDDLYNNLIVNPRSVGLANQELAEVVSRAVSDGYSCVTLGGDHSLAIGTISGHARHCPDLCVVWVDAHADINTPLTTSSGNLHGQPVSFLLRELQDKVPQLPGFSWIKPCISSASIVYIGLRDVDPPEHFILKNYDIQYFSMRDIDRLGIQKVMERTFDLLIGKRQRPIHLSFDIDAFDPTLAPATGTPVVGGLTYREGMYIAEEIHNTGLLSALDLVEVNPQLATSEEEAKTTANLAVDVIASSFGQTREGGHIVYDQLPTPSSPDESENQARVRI
- protocol_details: in vitro enzyme assay to detect the production of urea directly proportional to the activity of Arginase II; further: in the data most compounds retested in dose-response had high values
- Format: functional
- Design: scale not given: direction of the effect not stated beside the values
- experimental_parameters: 33.3 µM
reported_property: Percent Effect (%)
Note: unit % is implicit; provide only the numeric part.

// sample O=C(C[C@@H]1COC[C@H]2CN(Cc3ccc(F)cc3)C[C@@H]12)N1CCCCO1 , its Percent Effect was -0.176

Field Percent Effect (entry CN(C)S(=O)(=O)N1CCN(C(=O)c2ccc3ccn(C)c3c2)CC1 ) reads 8.74

Briefly, Percent Effect measured for COc1ccccc1CNC(=O)N1CCCC(c2nncn2C)C1 (stereo unspecified) : 1.08

What the record says about Cc1nc(C)n(CC2CN(CCCOc3ccccc3C)CCO2)n1 (stereo unspecified) : Percent Effect is 2.66

Just so you know, measured Percent Effect for CCn1cc(CN2CCCN(C(=O)C3=NN(C)C(=O)CC3)CC2)cn1 came out at 6.11

Record Cc1n[nH]c(=O)c2c(NC(=O)CN3CCC(O)CC3)oc(C)c12 . Reported Percent Effect: 0.41

Field Percent Effect (entry Cn1ccnc1CN1CCN(CC(O)c2cccc(F)c2)CC1 (stereo unspecified) ) reads -1.9

CCc1noc(C(C)N2CCOCC2)n1 (stereo unspecified) yielded Percent Effect of 0.887

What the record says about Cc1cc(S(=O)(=O)N2CCc3ccc(F)cc32)cc(C(=O)O)c1C : Percent Effect is -3.99

Entry CC(NC(=O)N1CCN(CCc2ccccc2)CC1)c1nncn1C (stereo unspecified) — recorded Percent Effect = 0.444

response.value for O=C(COc1coc(CN2CCCCC2)cc1=O)Nc1ccccc1Cl (field: Percent Effect) = -8.28

---

- measurement_target: Tyrosyl-tRNA synthetase, putative (Trypanosoma cruzi (strain CL Brener))
- protocol_details: Trypanosoma cruzi tyrosyl tRNA synthetase (TcYRS) SOP
- Type: functional
- Set-up: scale not given: direction of the effect not stated beside the values
- experimental_parameters: 30 µM
Please provide measured Percent Effect for the entries that follow.

Percent Effect for Cc1nc(C2CCCN(C(=O)COCc3ccccc3Cl)C2)no1 (stereo unspecified) is -5.13%

Percent Effect in this record for CCOc1ccccc1C(=O)N1CCCC1c1ncc2c(n1)CCNC2 (stereo unspecified) : -2.5%

Query CC(C)N(C)C(=O)C1=NOC2(CCN(C(=O)c3ccncc3)C2)C1 (stereo unspecified) yields Percent Effect of 6.17%

Measured Percent Effect of O=C1CCc2cc(-c3csc(CCN4CCCC4=O)n3)ccc2N1 : 19.5%

Per the record, O=C(CSc1ccccn1)N1C[C@H]2CC[C@@H]1CN(Cc1cscn1)C2 has Percent Effect of -4.88%

Notebook: c1cnc(-c2nc(CN3CCC(c4ccn[nH]4)CC3)cs2)nc1 , Percent Effect read as 23.2%
